system-name: UniProt:Q9NTG7
Sequence (Q9NTG7 102-399): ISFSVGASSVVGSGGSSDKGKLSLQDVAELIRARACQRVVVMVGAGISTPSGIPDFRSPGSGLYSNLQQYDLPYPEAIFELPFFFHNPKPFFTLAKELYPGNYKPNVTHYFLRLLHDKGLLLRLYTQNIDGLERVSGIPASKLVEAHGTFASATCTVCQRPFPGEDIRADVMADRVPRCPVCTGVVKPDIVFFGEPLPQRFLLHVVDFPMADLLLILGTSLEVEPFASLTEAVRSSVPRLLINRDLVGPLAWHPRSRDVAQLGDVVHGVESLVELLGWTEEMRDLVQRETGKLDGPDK
experimental-details: SIRT3 deacetylation of Trp 5-mer peptide, OAADPr mass spec assay
test-conditions: Trp SIRT3_IC50, Trp 5-mer peptide; class symbols
This listing pairs compounds with measured IC50.

Study these solved cases before continuing.
| compound | system-name | IC50 |
| --- | --- | --- |
| NC(=O)c1cc2ncnc(N3CCC4(CCNC4)CC3)c2s1 | UniProt:Q9NTG7 | < 1 µM |
| CC(C)(C)OC(=O)NCCCC1CCN(c2ncnc3cc(C(N)=O)sc23)CC1 | UniProt:Q9NTG7 | < 1 µM |
| NC(=O)c1cc2ncnc(N3CCC(C4CCNCC4)CC3)c2s1 | UniProt:Q9NTG7 | < 1 µM |
| Cc1nc(N2CCN(CCNC(=O)OC(C)(C)C)CC2)c2sc(C(N)=O)cc2n1 | UniProt:Q9NTG7 | 1 to 10 µM |

Output IC50 of `O=C(O)c1cc2ncnc(N3CCC(CN4CCCC4)CC3)c2s1`
> 10 µM

Output IC50 of `CC(C)(C)C(=O)NCCC1CCN(c2nccc3cc(C(N)=O)sc23)CC1`
1 to 10 µM

Output IC50 of `NCCN1CCN(c2ncnc3cc(C(N)=O)oc23)CC1`
1 to 10 µM

Output IC50 of `NC(=O)c1cc2ncnc(N3CCC(CCNC(=O)C4CCCC4)CC3)c2o1`
< 1 µM

Output IC50 of `NC(=O)c1cc2ncnc(N3CCC(O)(CN4CCCC4)CC3)c2s1`
1 to 10 µM

Sourced from patent US20160002273A1
